Values were extracted from PubChem BioAssay (NCI).

Each item that follows carries a reported TGI.
Tested on: SW-620 colon
test_details: NCI tumour cell line growth inhibition, 48 h

> print(dat)
                     molecule  system.under.test  readout.name  observed.value
1  CC(=O)/C=C(/C=N/O)c1ccccc1       SW-620 colon           TGI        > 100 µM

Task: Entry OC(Cc1ccccc1)(Cc1ccccc1)c1ccccc1 has what TGI?
Result: 52.2 µM

Task: Try this molecule too: CCCCCCCCCCCCC/C=C1\C[C@H](O)COC1=O
Result: 28.8 µM

Task: Please answer likewise for C[n+]1c2ccccc2c(C(=O)NC(CCCN=C(N)N)C(=O)O)c2ccccc21 (stereo not given)
Result: > 100 µM
